biological target: rhBACE-1 β-Secretase recombinant human (Homo sapiens, UniProt P56817); construct: purchased R&D Systems 931-AS; test: BACE assay (FRET, fluorogenic peptide substrate); type: biochemical; settings: given in M
Sequence (P56817 46-457 limits assumed): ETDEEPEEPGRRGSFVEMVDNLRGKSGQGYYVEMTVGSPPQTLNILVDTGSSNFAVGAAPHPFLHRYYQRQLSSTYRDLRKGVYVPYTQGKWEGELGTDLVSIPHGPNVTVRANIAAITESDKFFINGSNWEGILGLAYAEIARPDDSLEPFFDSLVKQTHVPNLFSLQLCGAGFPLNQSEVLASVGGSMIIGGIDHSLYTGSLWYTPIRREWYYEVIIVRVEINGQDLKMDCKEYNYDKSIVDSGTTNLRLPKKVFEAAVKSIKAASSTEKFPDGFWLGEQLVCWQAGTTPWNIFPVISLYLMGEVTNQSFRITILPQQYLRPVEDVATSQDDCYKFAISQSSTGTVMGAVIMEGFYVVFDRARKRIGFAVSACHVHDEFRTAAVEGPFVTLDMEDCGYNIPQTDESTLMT
QUANTITY_KIND: IC50 (µM)
Just the number please, in µM, no unit attached.

API: value(readout= IC50, system= rhBACE-1 β-Secretase recombinant human (Homo sapiens, UniProt P56817), query= `COCOc1ccc(C=O)cc1C/C=C(\C)CC/C=C(\C)CCC=C(C)C` )
37

* * *

molecular target: Recombinant human glycogen synthase kinase 3 beta (Homo sapiens); assay: GSK-3 beta inhibition assay (33P-ATP, GS-2 peptide); assay type: biochemical; details: 0.5 h; compound at 25 μM; percentage of the enzyme activity (remaining); read-out: % Act. GSK-3 beta
compounds and their reported remaining activity at 25 µM
Just the number please, in %, no unit attached.

Return reported remaining activity at 25 µM; argument: `COCOc1ccc(C(=O)O)cc1C/C=C(\C)CCC=C(C)C`
100

Request: `CC(=O)Oc1ccc(C(=O)O)cc1C/C=C(\C)CC/C=C(\C)CC/C=C(\C)CCC=C(C)C`
10.7

Request: `CC(C)=CCC/C(C)=C/CC/C(C)=C/Cc1cc(C(=O)O)ccc1O`
24.6

Request: `COCOC(=O)c1ccc(OC(C)=O)c(C/C=C(\C)CC/C=C(\C)CC/C=C(\C)CCC=C(C)C)c1`
51

* * *

compounds and their reported remaining activity at 50 µM
molecular target: Recombinant human glycogen synthase kinase 3 beta (Homo sapiens, UniProt P49841); experiment: GSK-3 beta inhibition assay (33P-ATP, GS-2 peptide); type: biochemical; conditions: 0.5 h; compound at 50 μM; percentage of the enzyme activity (remaining); read-out: % Act. GSK-3 beta
Sequence (P49841 whole entry): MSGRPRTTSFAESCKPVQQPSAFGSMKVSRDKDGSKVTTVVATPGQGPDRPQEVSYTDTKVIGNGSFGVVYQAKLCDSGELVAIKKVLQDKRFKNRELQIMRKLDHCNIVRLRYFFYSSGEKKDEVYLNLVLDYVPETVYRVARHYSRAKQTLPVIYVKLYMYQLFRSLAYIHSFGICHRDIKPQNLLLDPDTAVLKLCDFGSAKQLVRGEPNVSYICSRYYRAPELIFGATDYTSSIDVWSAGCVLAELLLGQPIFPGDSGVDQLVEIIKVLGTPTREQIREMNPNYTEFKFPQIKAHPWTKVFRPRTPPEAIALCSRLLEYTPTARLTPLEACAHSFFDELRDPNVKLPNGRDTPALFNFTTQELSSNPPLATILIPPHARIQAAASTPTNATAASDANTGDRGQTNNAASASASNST
Just the number please, in %, no unit attached.

Return reported remaining activity at 50 µM; argument: CC(C)=CCC/C(C)=C/CC/C(C)=C/Cc1cc(C=O)ccc1OCc1ccccc1 [Compound 23]
2.01

Request: COC(=O)c1ccc(O)c(C/C=C(\C)CC/C=C(\C)CC/C=C(\C)CCC=C(C)C)c1 [Compound 5]
70.8

Request: CC(C)=CCC/C(C)=C/CC/C(C)=C/CC/C(C)=C/Cc1cc(C(=O)O)ccc1O [Compound 1]
2.82

Request: CC(C)=CCC/C(C)=C/Cc1cc(C(=O)O)ccc1OCc1ccccc1 [Compound 27]
65.8

* * *

target: rhBACE-1 β-Secretase recombinant human (Homo sapiens); construct: purchased R&D Systems 931-AS; test: BACE assay (FRET, fluorogenic peptide substrate); type: biochemical; details: compound at 1 μM; percentage of the enzyme activity (remaining)
So basically, if % BACE Activity comes in under 90% it's yes (1), and if it's 90% or more it's no (0).

Before answering, review these 6 worked examples.
COCOc1ccc(C=O)cc1C/C=C(\C)CC/C=C(\C)CCC=C(C)C [Compound 9]: no (0)
CC(C)=CCC/C(C)=C/CC/C(C)=C/CC/C(C)=C/Cc1cc(O)ccc1O [Compound 2]: no (0)
CC(C)=CCC/C(C)=C/CC/C(C)=C/CC/C(C)=C/Cc1cc(C=O)ccc1O [Compound 13]: no (0)
CC(C)=CCC/C(C)=C/Cc1cc(C(=O)O)ccc1OCc1ccccc1 [Compound 27]: yes (1)
COCOc1ccc(C(=O)O)cc1C/C=C(\C)CC/C=C(\C)CCC=C(C)C [Compound 28]: yes (1)
CC(C)=CCC/C(C)=C/CC/C(C)=C/Cc1cc(C=O)ccc1O [Compound 12]: yes (1)

is_below(% BACE Activity, 90%) for CC(C)=CCC/C(C)=C/CC/C(C)=C/CC/C(C)=C/Cc1cc(C(=O)O)ccc1O [Compound 1] ?
yes (1)
